System: VIOTR
test: Pre-emergence herbicidal action against VIOTR
Assay type: in vivo, Viola tricolor
conditions: dosage 80 g/ha
Description: Seeds of monocotyledonous and dicotyledonous weed plants and crop plants are laid out in sandy loam soil in wood-fiber pots and covered with soil. […] The damage to the test plants is scored visually after a test period of 3 weeks by comparison with untreated controls (herbicidal activity in percent (%): 100% activity=the plants have died, 0% activity=like control plants). […]
Hi there, I'd appreciate the recorded Pre-emergence action against VIOTR in % for every entry that follows.
All answers are understood in %, so give the number only.

# input Request: Pre-emergence action against VIOTR in %, test system VIOTR, entry CCCn1nnnc1NC(=O)c1ccc(C(F)(F)F)c(C(=O)NC2CC2)c1CC
# output 100

# input API: value(readout=Pre-emergence action against VIOTR in %, system=VIOTR) for record Cc1nnc(NC(=O)c2ccc(C(F)(F)F)c(C(=O)NC(C)C3CC3)c2Cl)o1 (stereo not drawn)
# output 90

# input # returns recorded Pre-emergence action against VIOTR in % (system: VIOTR) for Cn1nnnc1NC(=O)c1ccc(C(F)F)c(C(=O)NCC#N)c1Cl
# output 90

# input What Pre-emergence action against VIOTR in % appears in the records for this molecule with VIOTR? CCn1nnnc1NC(=O)c1ccc(C(F)(F)F)c(C(=O)NC)c1OC
# output 90

# input So what Pre-emergence action against VIOTR in % did CCn1nnnc1NC(=O)c1ccc(C(F)F)c(C(=O)NCC2CCCO2)c1Cl (stereo not drawn) get with VIOTR?
# output 80

# input # value lookup — system VIOTR, readout Pre-emergence action against VIOTR in %, item CC(NC(=O)c1c(C(F)(F)F)ccc(C(=O)Nc2nnnn2C)c1C1CC1)C1CC1 (stereo not drawn)
# output 100

# input Form field - read-out: Pre-emergence action against VIOTR in %; system: VIOTR; submitted item: CCn1nnnc1NC(=O)c1ccc(C(F)F)c(C(=O)NC)c1SC
# output 90

# input // fetch VIOTR Pre-emergence action against VIOTR in % for CCn1nnnc1NC(=O)c1ccc(C(F)(F)F)c(C(=O)NCC2CC2)c1C1CC1
# output 100

# input Write down the reported Pre-emergence action against VIOTR in % of Cn1nnnc1NC(=O)c1ccc(C(F)(F)F)c(C(=O)NCC(F)F)c1Br , test system: VIOTR.
# output 100

# input Under VIOTR: Pre-emergence action against VIOTR in % value of Cc1nnc(NC(=O)c2ccc(C(F)F)c(C(=O)NCC3CC3)c2Br)o1 ?
# output 100

# input Provide the documented Pre-emergence action against VIOTR in % with VIOTR as the system for CC(NC(=O)c1c(C(F)(F)F)ccc(C(=O)Nc2nnnn2C)c1Cl)C1CC1 (stereo not drawn)
# output 100

# input Reported Pre-emergence action against VIOTR in % for VIOTR, given Cc1nnc(NC(=O)c2ccc(C(F)(F)F)c(C(=O)NC3CCC3)c2C)o1 ?
# output 90

# input # query: Pre-emergence action against VIOTR in % | item CC(NC(=O)c1c(Br)ccc(C(=O)Nc2nnnn2C)c1Cl)C1CC1 (stereo not drawn) | system: VIOTR
# output 100

# input Form entry - test system: VIOTR; read-out: Pre-emergence action against VIOTR in %; molecule: Cc1nnc(NC(=O)c2ccc(C(F)(F)F)c(C(=O)NC3CC3)c2Cl)o1
# output 90

# input Param readout = Pre-emergence action against VIOTR in %; param system = VIOTR; param query = CCc1c(C(=O)Nc2nnnn2C)ccc(C(F)(F)F)c1C(=O)NCC1CC1 ; response: value
# output 90

# input Query for VIOTR: what Pre-emergence action against VIOTR in % does the record show for CSc1c(C(=O)Nc2nnnn2C)ccc(C(F)(F)F)c1C(=O)NCC(F)F ?
# output 100

# input Notebook: pull reported Pre-emergence action against VIOTR in % for VIOTR, entry Cn1nnnc1NC(=O)c1ccc(C(F)(F)F)c(C(=O)NCC2CC2)c1C1CC1
# output 100

# input I'm curious: which Pre-emergence action against VIOTR in % was measured for COCCNC(=O)c1c(C(F)(F)F)ccc(C(=O)Nc2nnnn2C)c1Cl tested on VIOTR?
# output 100

# input Requested read-out Pre-emergence action against VIOTR in %, target or system VIOTR, entry CCn1nnnc1NC(=O)c1ccc(C(F)(F)F)c(C(=O)NCC(F)(F)F)c1Cl
# output 90

# input For the record CCn1nnnc1NC(=O)c1ccc(C(F)F)c(C(=O)NCC#N)c1Cl , what value of Pre-emergence action against VIOTR in % is listed for VIOTR?
# output 100

# input Request: Pre-emergence action against VIOTR in %, test system VIOTR, entry CNC(=O)c1c(C(F)F)ccc(C(=O)Nc2nnc(C)o2)c1OC
# output 80

# input Param readout= Pre-emergence action against VIOTR in %; system= VIOTR; entry= CCn1nnnc1NC(=O)c1ccc(C(F)F)c(C(=O)NC2CC2)c1SC ; returns value.
# output 100

# input Form field: Pre-emergence action against VIOTR in % recorded for CCNC(=O)c1c(OC)ccc(C(=O)Nc2nnnn2CC)c1Cl with VIOTR (enter value)
# output 100

# input Item: CCn1nnnc1NC(=O)c1ccc(C(F)(F)F)c(C(=O)NC(C)C2CC2)c1Br (stereo not drawn) Test system: VIOTR Read-out: Pre-emergence action against VIOTR in % Value: ?
# output 100
